Values compiled from paper PMC2222991.

Test system: RTC
experiment.description: inside-out patch macroscopic current, Hill fit
Format: cell-based, Bos taurus / Caenorhabditis elegans
condition.summary: read-out: K 1/2; agonist; divalent-free solution pH 7.2; -80 or -100 mV; n = 8
observable: EC50 (nM)

- compound: "Nc1nc2c(ncn2[C@@H]2O[C@@H]3COP(=O)(O)O[C@H]3[C@H]2O)c(=O)[nH]1 [cGMP]"
  observable: "EC50"
  observed.result: 1300
